subject of test: HCV RdRp NS5B d21BK (NS5B from the BK strain, genotype 1b) (Hepatitis C virus genotype 1b)
Construct: NS5B from the BK strain (genotype 1b) is expressed in E coli as a protein in which the 21 C-terminal amino acids are replaced; made in house; host or cells: E. coli
Sequence (P26663 2420-2989): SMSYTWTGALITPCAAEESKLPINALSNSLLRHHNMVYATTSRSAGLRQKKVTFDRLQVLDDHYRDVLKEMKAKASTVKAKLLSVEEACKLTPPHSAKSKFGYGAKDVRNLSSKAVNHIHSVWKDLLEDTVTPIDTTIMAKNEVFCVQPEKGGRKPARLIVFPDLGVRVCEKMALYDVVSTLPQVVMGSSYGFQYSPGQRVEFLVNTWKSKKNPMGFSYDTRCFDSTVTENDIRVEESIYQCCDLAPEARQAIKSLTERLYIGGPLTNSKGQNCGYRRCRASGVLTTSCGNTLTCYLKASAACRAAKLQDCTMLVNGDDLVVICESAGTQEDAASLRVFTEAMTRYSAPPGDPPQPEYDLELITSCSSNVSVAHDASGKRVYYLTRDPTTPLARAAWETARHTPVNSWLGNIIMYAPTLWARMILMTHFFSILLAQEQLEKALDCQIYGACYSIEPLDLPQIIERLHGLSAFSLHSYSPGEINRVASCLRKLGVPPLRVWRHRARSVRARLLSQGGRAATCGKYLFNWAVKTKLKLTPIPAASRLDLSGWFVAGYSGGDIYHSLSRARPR
protocol description: Hepatitis C polymerase inhibition assay, radioactive nucleotide incorporation with filter capture
Format: biochemical
Known pIC50 of a selection of compounds
To interpret pIC50, take it as minus log10 of a concentration measured in moles per litre.

Below: 3 compounds and their reported pIC50.
compound: C=CCC1(C(=O)O)CCc2c1[nH]c1c(F)ccc(C#N)c21 (stereo not drawn)
subject of test: HCV RdRp NS5B d21BK (NS5B from the BK strain, genotype 1b) (Hepatitis C virus genotype 1b)
pIC50: 4.84
//
compound: CCCC1(CC(=O)O)CCCc2c1[nH]c1cccc(C#N)c21 (stereo not drawn)
subject of test: HCV RdRp NS5B d21BK (NS5B from the BK strain, genotype 1b) (Hepatitis C virus genotype 1b)
pIC50: 5.02
//
compound: CCCCC1(C(=O)O)CCc2c1[nH]c1c(F)ccc(Br)c21 (stereo not drawn)
subject of test: HCV RdRp NS5B d21BK (NS5B from the BK strain, genotype 1b) (Hepatitis C virus genotype 1b)
pIC50: 5.24

Quick one: pIC50 for CCCC1(CC(=O)O)CCCc2c1[nH]c1cc(F)cc(F)c21 (stereo not drawn) ?
4.51

Quick one: pIC50 for CCCCC1(C(=O)O)CCc2c1[nH]c1c(C)ccc(Br)c21 (stereo not drawn) ?
5.17

Quick one: pIC50 for CCCC1(C(=O)O)CCc2c1[nH]c1c(C)cc(F)c(Br)c21 (stereo not drawn) ?
5.70

Quick one: pIC50 for C=CCC1(CC(=O)O)CCCc2c1[nH]c1c(F)ccc(F)c21 (stereo not drawn) ?
4.49

Quick one: pIC50 for CCCC1(C(=O)O)CCc2c1[nH]c1c(C)cc(F)c(C#N)c21 (stereo not drawn) ?
5.74

Quick one: pIC50 for CCCCC1(C(=O)O)CCc2c1[nH]c1c(Cl)ccc(Cl)c21 (stereo not drawn) ?
5.72
